System: M14 melanoma
Test: NCI-60 one-dose screen, 48 h (100 = growth as untreated, 0 = no growth, -100 = all killed)
Conditions: 10 µM
Compounds without any hit were thinned out: in the full panel of roughly 83,000, 20% have a hit.
QUANTITY MEASURED: growth (%)

COMPOUND	QUANTITY MEASURED	UNIT	ENDPOINT RESULT
COc1ccc(C2CC(c3ccc(-c4ccccc4)cc3)=NN2c2ccc(S(N)(=O)=O)cc2)cc1 (stereo unspecified)	growth	%	89.6
CC(=O)Nc1nc(C)c(C(=O)NNC=O)s1	growth	%	120
CCCn1c(=O)c2c(nc(-c3cccc(OCCCCl)c3)n2C)n(CCC)c1=O	growth	%	68.6
CC(C)C[C@H](NC(=O)CCn1ccc2ccccc2c1=O)B(O)O	growth	%	38
Cn1c([N+](=O)[O-])cnc1C=C1C(=O)c2ccccc2C1=O	growth	%	19.3
NC(=O)C1CCCN(Cc2c[nH]c3ccccc23)C1 (stereo unspecified)	growth	%	99
O=C(O)CNS(=O)(=O)c1ccc(OCCOc2ccc(S(=O)(=O)NCC(=O)O)cc2)cc1	growth	%	104
Cc1nc2cc(-n3c(-c4ccc(F)cc4)nc4ccccc4c3=O)ccc2n1Cc1ccccc1	growth	%	3.21
Nc1ncncc1-c1ccc(F)cc1	growth	%	107
Cc1nc(N)sc1Sc1nc2ccc(Cl)cc2c(=O)n1-c1ccc(Oc2ccccc2)cc1	growth	%	76.6
S=C(Cc1ccc(-c2ccccc2)cc1)N1CCOCC1	growth	%	101

* * *

Test system: HOP-92 NSCLC
Assay: NCI-60 one-dose screen, 48 h (100 = growth as untreated, 0 = no growth, -100 = all killed)
Conditions: 10 µM
This is part of a sample that, as a whole, favours compounds with a hit. Of some 83,000 tested, about 20% had one in any assay. Active and inactive are the calls of the source. Rule for the calls: active = growth percent below 10; inactive = the rest.

MOLECULE	growth
O=C1c2cc(Cl)ccc2-c2c(O)cc(Cl)cc21	52.8% (inactive)
COc1ccc(-c2cn[nH]c2-c2cc(OC)c(OC)c(OC)c2)cc1	-5.63% (active)
COc1cc(C2CC(=O)Nc3c2c(C)nn3-c2nc3ccccc3[nH]2)cc(OC)c1O (stereo unspecified)	32% (inactive)
N#Cc1ccc(-n2cnc(NC(=O)[C@H]3CCN(C#N)C3)c2)cc1	42% (inactive)
O=C(Nc1cccc([N+](=O)[O-])c1)NN1CCCCCC1	80.8% (inactive)
COc1ccc(C(=O)c2sc3nc(-c4cccs4)ccc3c2N)cc1OC	-0.708% (active)
NC1CCC(Nc2nc(NCc3ccc(-c4ccco4)nc3)c3ncn(C4CCCC4)c3n2)CC1 (stereo unspecified)	-16.3% (active)
CCCN(CCC)CCCNC(=O)c1cc2c(-c3ccc(OC)c(OC)c3)nn(C)c2s1	-7.72% (active)
C/C(=N\NC(=O)c1sc(=S)n(C)c1N)c1cc2ccccc2o1	58.8% (inactive)
CC(C)/C=N/NC(N)=S	73.1% (inactive)
c1ccc(COCC[P+](c2ccccc2)(c2ccccc2)c2ccccc2)cc1	-29.9% (active)
CCOC(=O)c1c(C)n(-c2ccc(Cl)cc2)c2ccc(OC(=O)/C=C/c3ccccc3)cc12	58% (inactive)
COc1cccc2c1C(=O)c1c(O)c3c(c(O)c1C2=O)C[C@@](O)(C(=O)COC(=O)c1ccccc1)C[C@@H]3OC1CC(N)C(O)C(C)O1 (stereo partly specified)	-77.9% (active)
CCc1c(C)[nH]c(=O)c(C(N)=O)c1C#N	109% (inactive)
CN(C1c2ccccc2Oc2ccccc21)S(=O)(=O)c1cc(Cl)ccc1Cl	34.8% (inactive)
CC(=O)O[C@H]1CC[C@@]2(C)[C@@H](CC[C@@H]3[C@@H]2CC[C@]2(C)C=C(C=O)C[C@@H]32)C1	76.2% (inactive)
COc1cc(OC)cc(-c2n/c(=C\c3c(O)[nH]c4ccc(OC)cc34)cc3c2=Nc2ccccc2-3)c1	68.6% (inactive)
CCOc1ccc2c(c1)CC[C@@H]1[C@@H]2CC[C@]2(C)[C@@H](O)[C@@H](O)C[C@@H]12	122% (inactive)
Cc1ccc(S(=O)(=O)Nc2cccc3[nH]c(C(F)(F)F)nc23)cc1	-3.66% (active)
O=C(c1ccccc1)C(Sc1ccccc1)c1ccccc1 (stereo unspecified)	67.2% (inactive)
COc1ccc(C(C)=O)cc1N1C(=O)C2C(C1=O)C1(c3ccccc3)C(=O)C2(c2ccccc2)C(c2ccc(C)cc2)=C1c1ccc(C)cc1 (stereo unspecified)	49.6% (inactive)
COc1ccc(-c2nnc(COc3ccc(NC(=O)Nc4ccccc4)cc3F)o2)cc1	52.2% (inactive)
Cc1ccc2nc3[nH]c(=O)[nH]c(=O)c3c(N)c2c1	76% (inactive)
COc1cc(-c2nc3ccccc3[nH]2)ccc1OCC(=O)N=Nc1c(O)[nH]c2ccccc12	78.1% (inactive)
COc1ccc(N2CCN(c3nc(-c4ccccc4)c(C#N)c(=O)[nH]3)CC2)cc1	92.4% (inactive)
C#CCNCCN1C(=O)c2ccc3c4c(ccc(c24)C1=O)C(=O)N(CCNCC#C)C3=O	91.2% (inactive)
COc1ccc(CCc2nc3cc(-c4c(C)noc4C)ccc3n2CCN2CCOCC2)cc1	-7.34% (active)
CCOC(=O)Nc1ccc2c(c1)C(=O)N(CC)c1ccccc1O2	33.7% (inactive)
COc1c(C)c(C)c(OC)c2c1[nH]c(=O)c1c3cccnc3cn21	102% (inactive)
COc1ccc(C(=O)n2nc(CC(=O)NCc3ccccc3)nc2N)cc1	111% (inactive)
O=C1/C(=C/c2ccc(O)cc2)Oc2ccc(Cl)cc21	67.1% (inactive)
CCC1(C)OC(=O)NC1=O (stereo unspecified)	93.2% (inactive)
CCCCCN(CCCCC)C(C)C(O)c1ccc2cc(Cl)c3ccccc3c2c1 (stereo unspecified)	55.9% (inactive)
CC(=O)OC1Oc2ccccc2-c2oc(=O)c(-c3cc(=O)oc4cc(O)ccc34)cc21 (stereo unspecified)	44.8% (inactive)
CC(=O)Nc1nc(C)c(C(=O)NNC=O)s1	67.2% (inactive)
FC(F)(F)c1ccc(-c2ncc(-c3ccc(C(F)(F)F)cc3)c(NCc3cc(C(F)(F)F)cc(C(F)(F)F)c3)n2)cc1	-6.55% (active)
COc1cccc(C(=O)NNc2nc(N3CCOCC3)nc(N3CCN(C(c4ccccc4)c4ccccc4)CC3)n2)c1	70.3% (inactive)
CCCCCCCCCCCCCCCCn1cc[n+](C)c1	-80.2% (active)
CCOc1cc(Br)c(C(C)NC(=O)c2cccc(OC)c2)cc1OCC (stereo unspecified)	8.9% (active)
CCCCCCCCCCCCCCCCCBr	98.8% (inactive)
CCOCC[P+](c1ccccc1)(c1ccccc1)c1ccccc1	-6.22% (active)

* * *

Listed below: growth values for each entry.
Test system: MALME-3M melanoma
Test: NCI-60 one-dose screen, 48 h (100 = growth as untreated, 0 = no growth, -100 = all killed)
Settings: 10 µM
Method: Cells are grown in 96 well plates and exposed to the test compound for 48 hours. Compounds are tested at a single concentration, which is 10^-5 M for most compounds. The reported endpoint is percent growth (GI% or GIPRCNT), where numbers from 0 - 100% represent growth inhibition, and numbers from -100% - 0 represent cell death. For example, a value of 40 represents 60% growth inhibition. A value of 0 means no net growth occurred over the course of the experiment. […]
About 83,000 compounds went through this panel and 20% of them were active in at least one assay; those are over-represented in the sample as a whole.

SMI	growth, %
CCCCCCCCCCCCCCCCn1cc[n+](C)c1	-73.7
Nc1cc(O)cc(O)c1	97.5
C=CCNC(=S)NN	79.7
O=c1oc2cc(OS(=O)(=O)C3CC3)ccc2c2c1CCCCCC2	95.3
O=S(=O)(NC1c2ccccc2Oc2ccccc21)c1ccccc1	97.8
CCCCCCCC/C=C/CCCCCCCCC1=NCCN1CCO	85.8
O=c1oc2c3ccc4cnccc4c3[nH]c2c2ccccc12	-80.8
CCCCn1c(=O)[nH]c(N)c(C(c2ccc(Cl)cc2)c2c(N)[nH]c(=O)n(CCCC)c2=O)c1=O	68.9
O=C(NC1CCN(Cc2ccccc2)CC1)c1cc(-c2ccncc2)nc2ccc(Cl)cc12	56.9
CNCCCNCCCN1C(=O)c2ccc3c4c(ccc(c24)C1=O)C(=O)N(CCCNCc1ccccc1OC)C3=O	-89.7
CCCc1c(C)nc2scc(-c3ccc(Cl)cc3)n2c1=O	116

* * *

Listed below: growth values for each entry.
System: SN12C renal
Test: NCI-60 one-dose screen, 48 h (100 = growth as untreated, 0 = no growth, -100 = all killed)
Details: 10 µM
Compounds without any hit were thinned out: in the full panel of roughly 83,000, 20% have a hit.

COMPOUND	STUDY TARGET	growth (%)
COc1ccc(-c2nc(-c3nc4ccc(C)cc4[nH]3)c3ccccn23)cc1	SN12C renal	44.9
O=C(NCc1cn(Cc2cccc(Oc3ccccc3)c2)nn1)c1cccnc1Nc1ccccc1	SN12C renal	50.2
O=C(c1ccc(Cl)cc1)c1no[n+]([O-])c1C(=O)c1ccc(Cl)cc1	SN12C renal	86.4
COc1cc(N=C2C(=O)N(Cc3ccccc3)c3ccccc32)cc(OC)c1OC	SN12C renal	99.6
CC(C)C[C@H](NC(=O)Cn1ccc(Nc2ccccc2)cc1=O)B(O)O	SN12C renal	47.9
COc1nc2c(c(=O)[nH]1)C(c1ccc(Oc3ccnc4cc(Cl)ccc34)c(OC)c1)C=C(c1cc(OC)c(OC)c(OC)c1)N2 (stereo unspecified)	SN12C renal	90.7
O=C(C=P(c1ccccc1)(c1ccccc1)c1ccccc1)c1ccc(Br)cc1	SN12C renal	96.5
O=C(c1ccccc1)C(Sc1ccccc1)c1ccccc1 (stereo unspecified)	SN12C renal	87.7
CC(=O)OCC(COC(C)=O)(COC(C)=O)COC(C)=O	SN12C renal	108
O=C(OCc1ncc(-c2ccc(C(F)(F)F)cc2)c(NC2CCCCCC2)n1)c1c(F)c(F)c(F)c(F)c1F	SN12C renal	54.1
O=C1NN(c2ccccc2)C(c2cccnc2)=N/C1=C\c1cccnc1	SN12C renal	102
CC(=O)CS(C)(=O)=O	SN12C renal	105
N#Cc1c(-c2ccccc2)nc(SCC(=O)N2CCOCC2)[nH]c1=O	SN12C renal	99.1
CCN1CCN(c2nc(NNC(=O)c3cccc(OC)c3)nc(N3CCN(C(c4ccccc4)c4ccccc4)CC3)n2)CC1	SN12C renal	61
Cc1nn2c(/C=C3/C(=O)Nc4ccc(Cl)cc43)c(-c3ccccc3)nc2s1	SN12C renal	52.7
COc1ccc(-c2nnc(COc3ccc(NC(=O)Nc4cccc(C(F)(F)F)c4)cc3F)o2)cc1	SN12C renal	48.7
COC(=O)c1c(C)nc(Nc2nc3ccccc3s2)nc1-c1ccc(Cl)cc1Cl	SN12C renal	99.8
CCc1ccc(Nc2cc(C)nc3nc(C)nn23)cc1	SN12C renal	26.2
CCc1nn2c(-c3cc(OC)c(OC)c(OC)c3)c(-c3cc(OC)c(OC)c(OC)c3)nc2s1	SN12C renal	85.9
Cc1cc(C)c2c(Nc3ncnc4c3sc3nc(C)cc(C)c34)n[nH]c2n1	SN12C renal	99.3
C#CCn1c(-c2cccc(OCCCCl)c2)nc2c1c(=O)n(C)c(=O)n2C	SN12C renal	84.5
